B1: mRNA-splicing (parent)
chain: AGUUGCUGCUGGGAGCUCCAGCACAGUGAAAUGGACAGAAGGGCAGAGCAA

Variants of: B1
Assay: exon inclusion enrichment index; higher = more inclusion; WT1 exon 5 minigene, HEK293
metricName: exon inclusion enrichment index

// field: exon inclusion enrichment index; key: G5C C6A U7C G8A U10A A30C A31U ; value = 0.168

// field: exon inclusion enrichment index; key: G5C C6U G8C C9U U10C G48A ; value = 2.76

// field: exon inclusion enrichment index; key: G5A U7C G8A U10C A40G G41U ; value = 1.79

// field: exon inclusion enrichment index; key: G5C C6U G8U C9A U10C ; value = 0.494

// field: exon inclusion enrichment index; key: C6A U7A C9A U10A A45U ; value = 1.14

// field: exon inclusion enrichment index; key: C6A U7C C9A U10C C22G A23U ; value = 0.87

// field: exon inclusion enrichment index; key: G5A C6G U7G G8A ; value = 0.0142

// field: exon inclusion enrichment index; key: C6A U7C C9A U10A ; value = 1.36

// field: exon inclusion enrichment index; key: G46C A47U ; value = 0.224

// field: exon inclusion enrichment index; key: G5C C6U G8C C9U U10C G43C C44G ; value = 4.6

// field: exon inclusion enrichment index; key: G5C C6G U7C U10C G21U C22A ; value = 1.73
